Tested on: NCI-H23 lung
assayText: NCI-60 one-dose screen, 48 h
details: 10 µM unless noted
About 83,000 compounds went through this panel and 20% of them were active in at least one assay; those are over-represented in the sample as a whole. Calls of active or inactive are those of the source. The calls were made as follows: active = growth percent below 10; inactive = the rest.
The reply should be one of these categories: class 1 (active), class 0 (inactive)

Below, 5 compounds whose answers are already recorded.
compound	discreteLabel
CC(=O)c1ccc(-n2c(-c3cc(-c4ccsc4)n[nH]3)n[nH]c2=S)cc1	class 0
O=C(Nc1cccc(Cl)c1)Nc1cc(C(F)(F)F)ccc1Cl	class 1
Cc1cc(C)cc(Nc2cc(C)nc3nc(C(F)(F)F)nn23)c1	class 0
COc1ccc2[nH]c(C(=O)OCc3ccc4c(Br)cc(Br)c(O)c4n3)cc2c1	class 1
[O-]/[N+](=C\c1ccccc1)CC1(O)CCCCC1	class 0

*Q* Could you check what this test reported for `O=C(Nc1ccc(Oc2ccc(Nc3nc4ccccc4s3)cc2)cc1)Nc1ccc(Cl)c(C(F)(F)F)c1` ?
*A* class 1

*Q* Could you check what this test reported for `Cc1[nH]nc2ccc3nc(-c4ccc5[nH]ncc5c4)c4c(c3c12)CCCC4` ?
*A* class 0

*Q* Could you check what this test reported for COc1ccc(C2C=C(c3ccc(Cl)cc3)N=C3SC=CN32)cc1 (stereo not drawn) ?
*A* class 0

*Q* Could you check what this test reported for CCc1ccc2c(c1)N(CCO)C1=C(C(=O)OC1)C2c1cccc(Cl)c1 (stereo not drawn) ?
*A* class 0

*Q* Could you check what this test reported for `CCCNC(=S)N/N=C(\C)c1ccccn1` ?
*A* class 0

*Q* Could you check what this test reported for `O=C(CCCCCCc1nc2ccc(Br)cc2[nH]1)NO` ?
*A* class 1

*Q* Could you check what this test reported for `Cc1cc(C)c2c(n1)sc1c(Nc3ccc(Cl)cc3Cl)ncnc12` ?
*A* class 0

*Q* Could you check what this test reported for `COc1ccc(-c2nnc(SCC(=O)Nc3ccc(C(=O)/C=C/c4ccc(Cl)cc4)cc3)n2-c2ccccc2)cc1` ?
*A* class 0

*Q* Could you check what this test reported for Cc1cc(O)c(C2=NN(c3ccc(S(N)(=O)=O)cc3)C(c3ccc(Cl)cc3)C2)c(C)c1Cl (stereo not drawn) ?
*A* class 0

*Q* Could you check what this test reported for `NC(=O)c1noc(C(=O)c2ccccc2)c1N` ?
*A* class 0

*Q* Could you check what this test reported for `O=C(Nc1ccc(OS(=O)(=O)c2ccc(F)cc2)cc1)C12CC3CC(CC(C3)C1)C2` ?
*A* class 0

* * *

Test system: BT-549 breast
assayText: NCI-60 one-dose screen, 48 h (100 = growth as untreated, 0 = no growth, -100 = all killed)
details: 10 µM unless noted
Compounds without any hit were thinned out: in the full panel of roughly 83,000, 20% have a hit.
readoutName: growth (%)
Response body: numeric value in %, unit text excluded.

// below: answered molecules
molecule	experimentalTarget	numericValue
Cc1ccc(N2C3c4ccccc4N(S(=O)(=O)c4ccc(C)cc4)C2c2ccccc2N3S(=O)(=O)c2ccc(C)cc2)cc1	BT-549 breast	115
CCCC(CCC)NCC(O)c1cc(-c2ccc(C(F)(F)F)cc2)nc(C(F)(F)F)c1 (stereo unspecified)	BT-549 breast	48.2
CNCc1cccc2c1OCCOCCOCCC(C)S(=O)(=O)c1ccc(cc1)-c1cnc(N)c(n1)C(=O)N2 (stereo unspecified)	BT-549 breast	43.9
COc1cc(Nc2ccnc3ccc(Br)cc23)cc(OC)c1OC	BT-549 breast	53.7
Clc1ccc2c(c1)-c1ccccc1C1=NCCN12	BT-549 breast	71.5

*Q* Returns the measured growth for the input molecule. Input: `O=C1/C(=C\c2cccn2Cc2ccc(F)cc2)c2ccccc2N1c1c(Cl)cccc1Cl`
*A* 95.6

*Q* Returns the measured growth for the input molecule. Input: `COc1ccc(Nc2ncnc3c2sc2nc(C)cc(C)c23)cc1`
*A* 104

*Q* Returns the measured growth for the input molecule. Input: CC(=O)OC1Oc2cc(C)c(C)cc2-c2oc(=O)c(-c3cc4ccccc4oc3=O)cc21 (stereo unspecified)
*A* 129

*Q* Returns the measured growth for the input molecule. Input: `COCCOCCOCc1n(Cc2ccc3ccccc3n2)c2ccccc2[n+]1Cc1ccc2ccccc2c1`
*A* -9.56

*Q* Returns the measured growth for the input molecule. Input: `CCOC(=O)c1c(NC(=O)c2ccccc2)sc2c(O)c(CN(CC)CC)ccc12`
*A* 0.881

*Q* Returns the measured growth for the input molecule. Input: O=C(C(Br)C(Br)c1ccccc1)C(Br)C(Br)c1ccccc1 (stereo unspecified)
*A* -82.8

*Q* Returns the measured growth for the input molecule. Input: `COc1cc2c(cc1I)-c1c(cc(OC)c(OC)c1OC)CC[C@@H]2NC(C)=O`
*A* 47.7

*Q* Returns the measured growth for the input molecule. Input: O=C(/C=C/c1ccccc1)C(Br)C(Br)c1ccccc1 (stereo unspecified)
*A* -60.8

*Q* Returns the measured growth for the input molecule. Input: `C=C(C)c1ccc(/C=N/NC(N)=S)cc1`
*A* 99.4

*Q* Returns the measured growth for the input molecule. Input: `CCCc1cc2c(cc1CN(Cc1cc3c(cc1CCC)OCO3)C(=N)OCC)OCO2`
*A* 80.4

*Q* Returns the measured growth for the input molecule. Input: O=C(NCC(c1ccsc1)N1CCCCCC1)c1ccc(C(F)(F)F)cc1 (stereo unspecified)
*A* 99.8

*Q* Returns the measured growth for the input molecule. Input: `COc1ccc([C@@H]2[C@@H](Cl)C(=O)N2c2cc(OC)c(OC)c(OC)c2)cc1C`
*A* 6.51

*Q* Returns the measured growth for the input molecule. Input: `Cn1c(=O)c2[nH]c(Cc3ccc4c(c3)OCO4)nc2n(C)c1=O`
*A* 103

*Q* Returns the measured growth for the input molecule. Input: `CCCCCCCCCCCC1=NC(C)(C)CN1C(C)(C)CO`
*A* 76.6

*Q* Returns the measured growth for the input molecule. Input: Nc1ncnc2c1N=C(c1ccc(F)cc1)CC(c1sc(Cl)nc1Cl)N2 (stereo unspecified)
*A* 78

*Q* Returns the measured growth for the input molecule. Input: `COc1cc2c(cc1C)NC(=O)/C2=C\c1c[nH]c2ccccc12`
*A* 94.6

* * *

System: HS 578T breast
assayText: NCI-60 one-dose screen, 48 h (100 = growth as untreated, 0 = no growth, -100 = all killed)
details: 10 µM
The panel holds about 83,000 compounds, 20% with a hit somewhere; the sample as a whole holds those more often.
readoutName: growth (%)
Response body: numeric value in %, unit text excluded.

// below: answered molecules
molecule	experimentalTarget	u	numericValue
COc1ccc(/C=C2\Cc3c(Br)cccc3C2=O)c(OC)c1	HS 578T breast	%	80.5
COCCCNCC(=O)Nc1c(C)cccc1C	HS 578T breast	%	124

*Q* Returns the measured growth for the input molecule. Input: O=C(/C=C/c1ccccc1)C(Br)C(Br)c1ccccc1 (stereo unspecified)
*A* 100

*Q* Returns the measured growth for the input molecule. Input: `CCCCn1c(C)nc2ccc(Nc3nc(Cl)nc4nc[nH]c34)cc21`
*A* 6.13

*Q* Returns the measured growth for the input molecule. Input: NS(=O)(=O)c1ccc(N2N=C(c3ccc(Br)cc3)CC2c2cn(-c3ccccc3)nc2-c2ccc(Cl)cc2)cc1 (stereo unspecified)
*A* 100

* * *

System: SK-MEL-28 melanoma
assayText: NCI-60 one-dose screen, 48 h (100 = growth as untreated, 0 = no growth, -100 = all killed)
details: 10 µM unless noted
About 83,000 compounds went through this panel and 20% of them were active in at least one assay; those are over-represented in the sample as a whole.
Think of 50% as a floor: if growth stands on it or above, it is T; beneath it, F.

Below, 4 molecules whose answers are already recorded.
molecule	discreteLabel
CC1CCN(Cc2ccc(NC(=O)c3cc4ccc5cccnc5c4[nH]3)cc2)CC1	F
COc1ccc2c(c1)CCCC21C(=O)Nc2c(Cl)cccc21 (stereo unspecified)	T
O=[N+]([O-])c1cc(F)c2cccnc2c1O	T
O=C(O)Cn1ccc2ccccc21	T

Field: next molecule
*Q* Say whether N#Cc1c(N)n(C2OC(CO)C(O)C2O)c2ncnc(N)c12 (stereo unspecified) shows growth of 50% or more.
*A* F

* * *

Tested on: SNB-75 CNS
assayText: NCI-60 one-dose screen, 48 h
details: 10 µM unless noted
About 83,000 compounds went through this panel and 20% of them were active in at least one assay; those are over-represented in the sample as a whole. Calls of active or inactive are those of the source. How the source made its calls: active means growth percent below 10; inactive means the rest.
The reply should be one of these categories: y (active), n (inactive)

molecule	experimentalTarget	discreteLabel
Cc1ccc(N2C3c4ccccc4N(S(=O)(=O)c4ccc(C)cc4)C2c2ccccc2N3S(=O)(=O)c2ccc(C)cc2)cc1	SNB-75 CNS	n
CCc1ccc(Nc2ncnc3c2cnn3-c2cccc(Br)c2)cc1	SNB-75 CNS	n
Cc1ccc(NC(=O)c2nc(S(C)=O)oc2-c2ccc(F)cc2)cc1Nc1nccc(-c2cccnc2)n1 (centres undefined)	SNB-75 CNS	n

*Q* Could you check what this test reported for `Cc1cc(C)c2c(NC(=O)Nc3ccc(Cl)c(Cl)c3)n[nH]c2n1` ?
*A* n

*Q* Could you check what this test reported for `CC(=O)[C@@]1(O)[C@H](C)C[C@H]2[C@@H]3C=C(C)C4=Cc5c(cnn5-c5ccccc5)C[C@]4(C)[C@H]3[C@@H](O)C[C@@]21C` ?
*A* n

*Q* Could you check what this test reported for `O=C1/C(=C\c2cccn2Cc2ccc(Cl)cc2)c2ccccc2N1c1c(Cl)cccc1Cl` ?
*A* n

*Q* Could you check what this test reported for CC1=C(C(=O)Nc2ccc(F)cc2)C(c2ccc(Cl)cc2)C2=C(CC(C)(C)CC2=O)N1 (centres undefined) ?
*A* n

*Q* Could you check what this test reported for CC1=C(C(=O)Nc2ccc(F)cc2)C(c2ccccc2)C2=C(CC(C)(C)CC2=O)N1 (centres undefined) ?
*A* n

*Q* Could you check what this test reported for `COc1cc2nccc(Oc3ccc(NC(=O)C4(C(=O)Nc5ccc(F)cc5)CC4)cc3)c2cc1Oc1ccc(N)cn1` ?
*A* y
